Form field: melting point (one value per entry).

Below are worked cases with known answers.
>>> endpointvalue("COC(=O)c1nc(C2CC2)nc(SC)c1Cl")
"74 to 75 °C"
>>> endpointvalue("COc1ccc(-c2cn3ccccc3n2)cc1")
"131 to 134 °C"
>>> endpointvalue("CCCCC#Cc1cc2c(cc1Br)C(C)(C)CCC2(C)C")
"59 to 63 °C"
>>> endpointvalue("CCOC(=O)CCc1c(OC)cncc1OC")
"66 to 67 °C"
>>> endpointvalue("O=C(Cl)c1ccc(OCc2ccccc2)c(Cl)c1")
"78 to 80 °C"

// next item, melting point requested
response.value for COC(=O)c1nc2c(c(-c3cccs3)nn2-c2ccccc2)c(N)c1C(=O)OC (field: melting point) = 178 to 180 °C
